Recorded values, source PubChem BioAssay AID463204.

# System: S. cerevisiae Mot1-301 ts growth rescue, BacTiter-Glo ATP luminescence
# measurement.notes: restored Mot1-301 yeast growth at 38.5C – whole organism, S. cerevisiae, Mot1-301 ts mutant, luminescence, dose retest, SUMOylation pathway inhibitor project, confirmation (AID 463204);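 also: growth at restrictive 38.5 degrees C of Mot1-301 OY566 strain; actives raise luminescence by restoring growth of the ts mutant at high temperature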
Calls of active or inactive are those of the source.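 The calls were made as follows: active = AC50 no more than ten times the top concentration tested, that is within one log above it; inconclusive = flat curve fit with activity between 30% and 70%, or invalid poor fit; inactive = AC50 beyond ten times the top tested dose.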
Task for the reader: assign each of the following compounds its reported AC50.

Provide one value: measured AC50 of `COCC(=O)NNC(=O)c1ccccc1OC`
> 42 µM (inactive)

Note AC50 for the compound shown: `O=C1NC(=O)C(=Cc2ccc(N3CCOCC3)cc2)C(=O)N1`
> 42 µM (inactive)

Specify reported AC50 for the compound shown: `COc1ccc2[nH]cc(C(=O)C(=O)N3CCCCC3)c2c1`
> 42 µM (inactive)

* * *

# Tested on: S. cerevisiae Mot1-301 ts growth rescue, BacTiter-Glo ATP luminescence
# measurement.notes: restored Mot1-301 yeast growth at 38.5C – whole organism, S. cerevisiae, Mot1-301 ts mutant, luminescence, dose retest, SUMOylation pathway inhibitor project, confirmation (AID 463204)
The source made the active and inactive calls.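 The calls were made as follows: active = AC50 no more than ten times the top concentration tested, that is within one log above it; inconclusive = flat curve fit with activity between 30% and 70%, or invalid poor fit; inactive = AC50 beyond ten times the top tested dose.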
Pick one: active, inactive

Identify the outcome logged in this assay for the compound shown: `O=C(Nc1ccc2c(c1)CCCN2C(=O)c1cccs1)c1cccc(F)c1`
inactive

Dear colleague, could you share the recorded outcome for `CC(=O)c1ccc2noc(-c3ccc(F)cc3)c2c1` when you have a moment?
inactive

Outcome? `CC1=CC2=NC(=O)/C(=C\c3cc(C)n(-c4ccccc4)c3C)C(=N)N2O1`
inactive

For OCC1(Cc2cccc(Cl)c2)CCCN(Cc2ccc(F)c(F)c2)C1 (centres undefined) , which call appears in the assay record?
inactive

Which outcome was entered for the compound `Cc1nnc(NC(=O)c2cccc(S(=O)(=O)N3CCCC3)c2)s1` in this test?
inactive

Which outcome was entered for the compound `N=c1n(CCCOc2ccc(Br)cc2)c2ccccc2n1CC(N)=O` in this test?
inactive

Test call for this compound, please: `N#CCCN(Cc1cccnc1)C(=O)Nc1cccc(Cl)c1`
inactive

What did this assay record as the result for `COc1ccc(S(=O)(=O)Cc2ccc(C(=O)NCc3cccs3)o2)cc1` ?
inactive

What did this assay record as the result for `CCCNC(=O)c1cc2c(C(F)(F)F)nn(C)c2s1` ?
inactive

Test call for this compound, please: `CCn1nccc1C(=O)Nc1nccs1`
inactive

Each compound tested received a call. Report the one for `O=C(CN1C(=O)NC2(CCCC2)C1=O)Nc1nc2ccccc2[nH]1` .
inactive

# lookup: test call for `CC(C)(C)Cc1nc(-c2ccccn2)no1`
inactive

// param item: `COc1nc(OC)nc(N2CCC(C(=O)NC3CCCCCC3)CC2)n1` ; yields the recorded call
inactive

So what was the verdict on CCOC(=O)C1ON2CCCCC2C1(O)C(F)(F)F (centres undefined) in this test?
inactive

Write down the call the test reported for this compound. Item: `O=C(Cc1cccs1)Nc1cccc(-c2nnc(-c3ccco3)o2)c1`
inactive

Hello, I am checking results. What call was entered for `CCn1c(=O)n(CC)c2cc(NC(=O)c3ccccc3Cl)ccc21` ?
inactive

Hi, sorry to bother you, what did the test record for CCN(CC)CCCN1C(=O)C(=O)/C(=C(/O)c2ccccc2)C1c1cc(OC)ccc1OC (centres undefined) ?
inactive

Hey, what did the test say about CCOC(=O)C1=C(C)NC(C)=C(C(=O)OCC)C1C(=O)OC1CCOC1=O (centres undefined) ?
inactive

Dear colleague, could you share the recorded outcome for `COc1ccc(C(=O)NCCSc2ccc(C)cc2)cc1` when you have a moment?
inactive

Call for entry `COc1ccc(NC(=O)CSc2nnc(-c3ccccn3)n2-c2ccccc2)cc1OC` :
inactive

Would you mind telling me which call this test gave `CCCC(=O)N(CCN1CCOCC1)c1nc2ccc(OCC)cc2s1` ?
inactive

Write down the call the test reported for this compound. Item: `COc1cc(CNCc2ccc3c(c2)OCO3)c([N+](=O)[O-])cc1OC`
inactive

Recorded test call requested for `COc1ccc2c(c1)c(CC(=O)OCC(N)=O)c(C)n2C(=O)c1ccc(Cl)cc1`
inactive

Assay outcome for CC1CCCCN1C(=O)C(Cc1ccccc1)N1C(=O)C2CCCCC2C1=O (centres undefined) : what was it?
active

Any idea what this test logged for `Cc1ccccc1C(=O)NN(C)c1nc2ccccc2nc1C(F)(F)F` ?
inactive

How did this test come out for `C/C(N)=C(/C#N)C(=O)CSc1nnc(-c2ccccc2)n1C` ?
inactive

Record lookup: outcome of this test for CCn1c(SCC(=O)NC2CCCCC2)nnc1C(C)NC(=O)c1ccccc1F (centres undefined) ?
inactive

GET /call?item= `O=C(CSc1nnc(-c2cccs2)n1-c1ccccc1)c1ccc2c(c1)OCCO2` returns the recorded outcome of this test.
inactive

Write down the call the test reported for this compound. Item: COC(=O)C1=C(C)NC(C)=C([N+](=O)[O-])C1c1ccccc1C(F)(F)F (centres undefined)
inactive

Query: recorded result category for `CCS(=O)(=O)N1CCC(C(=O)NCCCN2CCN(c3ccccc3F)CC2)CC1` in this test
inactive

// outcome(item) with item = `O=Cc1cn(Cc2ccccc2F)c2ccccc12`
inactive

// outcome(item) with item = `CC(=O)Nc1ccc(S(=O)(=O)N(C)CC(=O)Nc2ccc(Br)cc2F)cc1`
inactive

What was the test verdict on `CS(=O)(=O)N(CC(=O)NCCSCc1ccccc1)c1ccc2c(c1)OCO2` ?
inactive

How did this test come out for `O=C(/C=C/NNC(=O)c1ccc(Br)cc1)c1ccccc1` ?
inactive

Please state the recorded outcome for this compound: CC(C(=O)Nc1ccccc1-c1ccccc1)N1CCN(Cc2ccccc2)CC1 (centres undefined)
inactive

How was `COc1ccccc1NC(=S)N(Cc1ccccc1)Cc1cccs1` classified in this test?
inactive

Please share the test call associated with `CCN1C(=O)N(C)[C@@H](c2ccccc2)C(C(=O)OC)=C1C` .
inactive

Any idea what this test logged for `CCCn1nc(C(=O)NNC(=O)c2cc(S(=O)(=O)NC)ccc2Br)c2ccccc2c1=O` ?
inactive

Hi team, can someone confirm the assay call for `COc1cc(S(=O)(=O)NC2CCCC2)c(OC)cc1C` ?
inactive

Called result for `Cc1ccn2cc(-c3cnoc3C)nc2c1`
inactive

Which outcome was entered for the compound `CSCC[C@H](NC(=O)CC(C)(C)C)c1nc2ccccc2[nH]1` in this test?
inactive

Answer briefly: the call reported for `CCCCn1c(N)c(N(CCOC)C(=O)c2cnccn2)c(=O)[nH]c1=O` in this assay.
inactive

Called result for `COc1cccc2[nH]c(=O)c(-c3ccccc3)cc12`
inactive

Name the outcome recorded for `CCn1c(N2CCN(C(=O)C34CC5CC(CC(C5)C3)C4)CC2)nc2ccccc21` in the assay.
inactive

* * *

# System: S. cerevisiae Mot1-301 ts growth rescue, BacTiter-Glo ATP luminescence
# measurement.notes: restored Mot1-301 yeast growth at 38.5C – whole organism, S. cerevisiae, Mot1-301 ts mutant, luminescence, dose retest, SUMOylation pathway inhibitor project, confirmation (AID 463204);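 also: growth at restrictive 38.5 degrees C of Mot1-301 OY566 strain; actives raise luminescence by restoring growth of the ts mutant at high temperature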
Calls of active or inactive are those of the source.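 How the source made its calls: active means AC50 no more than ten times the top concentration tested, that is within one log above it; inconclusive means flat curve fit with activity between 30% and 70%, or invalid poor fit; inactive means AC50 beyond ten times the top tested dose.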
Hi! Could you answer with just one of these? active, inactive

Check the results log: what was the call for `CC(C)(C)c1ccc(C(=O)COC(=O)CN2C(=O)NC3(CCCC3)C2=O)cc1` ?
inactive

So what was the verdict on `CCOc1cc(-c2ccccc2)nc(N)n1` in this test?
inactive

Name the outcome recorded for `c1ccc(-c2cc3cc4c(cc3cn2)OCO4)cc1` in the assay.
active

Can you look up the reported call for `COc1ccc(N(CC(=O)NCc2ccc(C)cc2)S(=O)(=O)c2c(C)nn(C)c2C)cc1` for me?
inactive

Which outcome was assigned to `Cc1ccc2c(c1)C(=O)N1[C@H]3c4ccccc4OC[C@@H]3[C@H](c3ccccc3)[C@]1(C)C(=O)N2` in this test?
active

* * *

# System: S. cerevisiae Mot1-301 ts growth rescue, BacTiter-Glo ATP luminescence
# measurement.notes: restored Mot1-301 yeast growth at 38.5C – whole organism, S. cerevisiae, Mot1-301 ts mutant, luminescence, dose retest, SUMOylation pathway inhibitor project, confirmation (AID 463204);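 also: growth at restrictive 38.5 degrees C of Mot1-301 OY566 strain; actives raise luminescence by restoring growth of the ts mutant at high temperature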
Activity calls are given as the source filed them.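 Rule for the calls: active = AC50 no more than ten times the top concentration tested, that is within one log above it; inconclusive = flat curve fit with activity between 30% and 70%, or invalid poor fit; inactive = AC50 beyond ten times the top tested dose.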
Response enum: yes (1) (active), no (0) (inactive)

Short answer needed: outcome of this test for CC1CCCC(C)N1/N=C/c1cc(Br)cc(Br)c1O (stereo not given) ?
yes (1)

Any idea what this test logged for Cc1ccc(N(C(=O)CCl)C(C(=O)NC2CCCCC2)c2cccnc2)cc1C (stereo not given) ?
yes (1)

Short answer needed: outcome of this test for COc1ccc(C)cc1NC(=O)C12CCC(C)(C(=O)O1)C2(C)C (stereo not given) ?
no (0)

Tell me the recorded outcome of this test for `CN1/C(=C\C(=O)COC(=O)c2ccc([N+](=O)[O-])o2)C(C)(C)c2ccccc21` .
yes (1)

Hi, do you know how CC1CCC(C(C)C)C(OC(=O)COC(=O)c2cccn2C)C1 (stereo not given) came out in this test?
no (0)

* * *

# Test system: S. cerevisiae Mot1-301 ts growth rescue, BacTiter-Glo ATP luminescence
# measurement.notes: restored Mot1-301 yeast growth at 38.5C – whole organism, S. cerevisiae, Mot1-301 ts mutant, luminescence, dose retest, SUMOylation pathway inhibitor project, confirmation (AID 463204);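 also: growth at restrictive 38.5 degrees C of Mot1-301 OY566 strain; actives raise luminescence by restoring growth of the ts mutant at high temperature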
Calls of active or inactive are those of the source.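 The calls were made as follows: active = AC50 no more than ten times the top concentration tested, that is within one log above it; inconclusive = flat curve fit with activity between 30% and 70%, or invalid poor fit; inactive = AC50 beyond ten times the top tested dose.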
Would you kindly list AC50 for each of these compounds?

Report AC50, nothing else, for this compound: `Cc1ccc(NS(=O)(=O)c2cc(C(=O)Nc3cccc([N+](=O)[O-])c3)ccc2C)cc1`
> 42 µM (inactive)

Given `COc1ccc(CCNC(=O)c2cc(-c3ccco3)on2)cc1OC` , respond with its AC50.
> 42 µM (inactive)

Read the entry `COc1cccc(NC(=O)CN2CCN(c3ccccc3F)CC2)c1` and write its reported AC50.
39.1 µM

Return the recorded AC50 value; entry: `CCOc1cc(/C=N/NC(=O)C(=O)N/N=C/c2ccc(O)c(OCC)c2)ccc1O`
> 42 µM (inactive)
